- tested target: T1, EGFR overexpressed on cancer cell lines MDA-MB-468 and A431 (human, UniProt P00533 25-1210)
- T1 construct: whole, on cells; also called overexpressed EGFR; cancer-expressed EGFR
- assay explanation: flow cytometry, antibodies added at 2 µg/ml, A431 cells
readout type: Median : PE-A
Just the number, please, no unit attached.

[
  {
    "binder": "monoclonal antibody 40H3 (antibody, V domains shown, also called ma40H3 GS; 40H3 (full length antibody)) VH: QVQLKQSGPGLVQPSQSLSITCTVSGFSLTNYGIHWLRQSPGKGLEWLGMMWRGGGTDYNAAFISRLTITKDTSKSQVFFRMNNLQTNDTAIYYCARKGVGMGLGYWGQGTSVTVSS VL: DIQMTQSPASQSASLGESVTITCLASQTIGTWVAWYQQKPGRSPQLLIYGATNLADGVPSRFSGSGSGTKFSFKISSLQAEDFVSYYCQQLYSNPYTFGGGTKLEIK",
    "test value": 3160
  }
]

--- query ---
So what does the record say about Median : PE-A for monoclonal antibody 11G3 (antibody, V domains shown) VH: QVQLKQSGPSLVQPSQSLSITCTVSGFSLTNYGVHWVRQSPGKGLEWLGVMWRGGRTDYNAAFMSRLSITKDNSRSQVFFKMNSLQTDDAAIYYCAKNGPFGNFAGYWGQGTLVTVST VL: DIVMSQSPSSLPVSVGEKVSLTCKSSRSLLDNQKHYLAWYQQKPGQSPKLLIYWASTRESGVPDRFTGSGSGTEFTLTISSVKAEDLAVYYCQQFYNYPYTFGGGTKLEIK ? 90.3
